Ref: patent US20220106289A1

# assay: PK in rats, oral administration
# Assay type: in vivo
# studyConditions: male, Sprague-Dawley, plasma, 3 mg/kg, rat
Where a name gives a salt, the structure may show the parent alone.
Would you mind telling me the reported CL/F of each entry?
Kindly provide the numeric value in mL/min/kg only, without the unit symbol.

Problem: Would you kindly share the measured CL/F for `COC(C)(C)c1cc(S(=O)(=O)NC(=O)Nc2c3c(cc4c2CCC4)CCC3)nn1C` ?
Result: 13

Problem: Moving on to CCn1ccc(S(=O)(=O)NC(=O)Nc2c3c(cc4c2CCC4)CCC3)n1 [Example 45, sodium salt]
Result: 0.8

----------
# testedOn: NLRP3 (Homo sapiens)
# assay: THP-1 cells pyroptosis assay (LPS + nigericin, resazurin read-out)
# Format: cell-based
# Parameters: Seed THP-1 cells (25,000 cells/well) containing 1.0 μg/ml LPS; host or cells: THP-1 cells
# studyConditions: NLRP3 inhibitory activity, 1 μg/ml LPS, 5 μM nigericin
Counter-ions that a name gives are not always drawn.
Would you mind telling me the reported IC50 of each entry?

Problem: Would you kindly share the measured IC50 for CC(C)n1ccc(S(=O)(=O)NC(=O)Nc2c3c(cc4c2C(=O)CC4)CCC3)n1 [Example 15, potassium salt] ?
Result: 1 to 5 µM

Problem: Moving on to `CC(C)(O)c1coc(S(=O)(=O)NC(=O)Cc2noc3ccccc23)c1`
Result: 1 to 5 µM

Problem: Moving on to CC(O)c1cc(S(=O)(=O)NC(=O)Nc2c3c(cc4c2CCC4)CCC3)nn1C (stereo not shown)
Result: 0.5 to 1 µM

Problem: Moving on to `CC(C)c1cc(F)cc(C(C)C)c1CC(=O)NS(=O)(=O)c1cnc(C(C)(C)O)s1`
Result: 1 to 5 µM

----------
Would you mind telling me the reported pIC50 of each entry?
# testedOn: NLRP3 (Homo sapiens, UniProt Q96P20)
# Sequence (Q96P20 whole entry): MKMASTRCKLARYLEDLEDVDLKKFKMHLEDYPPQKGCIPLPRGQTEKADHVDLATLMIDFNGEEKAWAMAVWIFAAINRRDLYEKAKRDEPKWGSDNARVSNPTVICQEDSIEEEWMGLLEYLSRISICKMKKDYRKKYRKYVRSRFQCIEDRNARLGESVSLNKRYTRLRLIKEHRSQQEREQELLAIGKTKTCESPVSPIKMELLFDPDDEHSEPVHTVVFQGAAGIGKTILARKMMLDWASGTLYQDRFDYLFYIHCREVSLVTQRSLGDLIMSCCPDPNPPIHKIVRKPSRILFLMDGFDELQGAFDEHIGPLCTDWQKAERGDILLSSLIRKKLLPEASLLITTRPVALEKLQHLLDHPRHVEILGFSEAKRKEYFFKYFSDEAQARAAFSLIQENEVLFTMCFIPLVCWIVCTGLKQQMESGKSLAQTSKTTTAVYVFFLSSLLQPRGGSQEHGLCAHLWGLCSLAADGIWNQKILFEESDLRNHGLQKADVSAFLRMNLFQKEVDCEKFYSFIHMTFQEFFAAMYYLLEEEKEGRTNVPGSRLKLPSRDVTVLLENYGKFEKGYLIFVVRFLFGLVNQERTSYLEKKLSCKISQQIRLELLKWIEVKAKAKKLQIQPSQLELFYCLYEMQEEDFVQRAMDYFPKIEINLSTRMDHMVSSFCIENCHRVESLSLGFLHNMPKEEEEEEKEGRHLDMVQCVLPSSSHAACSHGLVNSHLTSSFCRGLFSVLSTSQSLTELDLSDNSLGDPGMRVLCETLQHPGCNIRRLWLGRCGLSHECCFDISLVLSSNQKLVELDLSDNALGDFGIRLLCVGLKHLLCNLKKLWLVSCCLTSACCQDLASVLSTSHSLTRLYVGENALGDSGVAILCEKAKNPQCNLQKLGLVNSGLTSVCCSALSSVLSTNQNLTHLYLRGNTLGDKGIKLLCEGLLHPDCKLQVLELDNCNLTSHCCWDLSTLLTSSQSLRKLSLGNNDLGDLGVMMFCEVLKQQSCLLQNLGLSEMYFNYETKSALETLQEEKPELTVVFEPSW
# assay: THP-1 cells pyroptosis assay (LPS + nigericin, resazurin read-out)
# Format: cell-based
# Design: Seed THP-1 cells (25,000 cells/well) containing 1.0 μg/ml LPS; host or cells: THP-1 cells
# studyConditions: NLRP3 inhibitory activity, 1 μg/ml LPS, 5 μM nigericin
pIC50: −log10 of the molar value. Counter-ions that a name gives are not always drawn.

Problem: Would you kindly share the measured pIC50 for `CC(C)n1ccc(S(=O)(=O)NC(=O)Nc2c3c(c(Br)c4c2CCC4)CCC3)n1` ?
Result: > 6.60

Problem: Moving on to Cc1nn(C)cc1S(=O)(=O)NC(=O)Nc1c2c(cc3c1CCC3)CCC2 [Example 80, sodium salt]
Result: 6.00 to 6.30

Problem: Moving on to `CC(C)(O)c1coc(S(=O)(=O)NC(=O)Cc2cc(C(F)(F)F)cc(C(F)(F)F)c2)c1`
Result: 5.30 to 6.00

Problem: Moving on to Cc1cc(CN(C)C)cc(S(=O)(=O)NC(=O)Nc2c3c(cc4c2CCC4)CCC3)c1 [Example 57, sodium salt]
Result: > 6.60

Problem: Moving on to `CC(C)n1ccc(S(=O)(=O)NC(=O)Nc2cc(Br)ccc2Sc2nnnn2C)n1`
Result: 5.30 to 6.00

Problem: Moving on to `Cn1nc(S(=O)(=O)NC(=O)Nc2c3c(cc4c2CCC4)CCC3)cc1CO`
Result: 6.30 to 6.60

Problem: Moving on to `CCOC(=O)CNC(=O)Nc1c2c(cc(C)c1-c1ccnc(OC3CCN(C)CC3)c1)CCC2`
Result: 5.30 to 6.00

Problem: Moving on to `COC(C)(C)c1cc(S(=O)(=O)NC(=O)Nc2c3c(cc4c2CCC4)CCC3)nn1C`
Result: > 6.60

----------
# testedOn: NLRP3 (Homo sapiens)
# assay: Human whole blood IL-1β release assay (LPS + nigericin, AlphaLisa)
# Assay type: cell-based
# Parameters: Human whole blood in Li-heparin tubes was obtained from healthy donors; from tissue; host or cells: human whole blood from healthy donors
# studyConditions: NLRP3 inhibitory activity, 1 μg/ml LPS, 10 μM nigericin, read-out: HWB IC50
pIC50: −log10 of the molar value. Structures can show the parent of a compound that is named as a salt.
Would you mind telling me the reported pIC50 of each entry?

Problem: Would you kindly share the measured pIC50 for `CC(C)n1cc(S(=O)(=O)NC(=O)Nc2c3c(c(Br)c4c2CCC4)CCC3)cn1` ?
Result: 5.00 to 5.30

Problem: Moving on to O=C(Nc1c2c(cc3c1CCC3)C=CC2)NS(=O)(=O)c1cc[nH]n1 [Example 14, potassium salt]
Result: 5.00 to 5.30

Problem: Moving on to CC(C)n1ccc(S(=O)(=O)NC(=O)Nc2c3c(cc4c2C(=O)CC4)CCC3)n1 [Example 15, potassium salt]
Result: < 5.00

Problem: Moving on to `CC(C)n1nncc1S(=O)(=O)NC(=O)Nc1c2c(cc3c1CCC3)CCC2`
Result: 5.30 to 6.00

----------
# assay: PK in rats, oral administration
# Assay type: in vivo
# studyConditions: male, Sprague-Dawley, 1.3 mg/kg, rat plasma
assayReadout: Tmax (h)
Kindly provide the numeric value in h only, without the unit symbol.

Problem: Would you kindly share the measured Tmax for COC(C)(C)c1cc(S(=O)(=O)NC(=O)Nc2c(C(C)C)cc(Cl)cc2C(C)C)nn1C [Example 83] ?
Result: 3.17

----------
Would you mind telling me the reported AUC of each entry?
# assay: PK in rats, intravenous administration
# Format: in vivo
# studyConditions: male, Sprague-Dawley, 1 mg/kg, rat plasma
Where a name gives a salt, the structure may show the parent alone.

Problem: Would you kindly share the measured AUC for `COC1(c2cc(S(=O)(=O)NC(=O)Nc3c4c(cc5c3CCC5)CCC4)nn2C)CCC1` ?
Result: 4870 ng·h/mL

Problem: Moving on to CC(C)n1cnc(S(=O)(=O)NC(=O)Nc2c3c(cc4c2CCC4)CCC3)n1 [Example 46, sodium salt]
Result: 10000 ng·h/mL

Problem: Moving on to [2H]C([2H])([2H])C([2H])(n1ccc(S(=O)(=O)NC(=O)Nc2c3c(cc4c2CCC4)CCC3)n1)C([2H])([2H])[2H] [Example 20, potassium salt]
Result: 21600 ng·h/mL

Problem: Moving on to `COC(C)(C)c1cc(S(=O)(=O)NC(=O)Nc2c(C(C)C)cc(Cl)cc2C(C)C)nn1C`
Result: 1130 ng·h/mL

----------
# assay: PK in rats, intravenous administration
# Assay type: in vivo
# studyConditions: male, Sprague-Dawley, plasma, 1 mg/kg, rat
Structures can show the parent of a compound that is named as a salt.
assayReadout: clearance (mL/min/kg)
Kindly provide the numeric value in mL/min/kg only, without the unit symbol.

Problem: Would you kindly share the measured clearance for CC(C)n1cnc(S(=O)(=O)NC(=O)Nc2c3c(cc4c2CCC4)CCC3)n1 [Example 46, sodium salt] ?
Result: 1.7

Problem: Moving on to [2H]C([2H])([2H])C([2H])(n1ccc(S(=O)(=O)NC(=O)Nc2c3c(cc4c2CCC4)CCC3)n1)C([2H])([2H])[2H] [Example 20, potassium salt]
Result: 0.8

Problem: Moving on to `COC1(c2cc(S(=O)(=O)NC(=O)Nc3c4c(cc5c3CCC5)CCC4)nn2C)CCC1`
Result: 3.4

Problem: Moving on to `COC(C)(C)c1cc(S(=O)(=O)NC(=O)Nc2c(C(C)C)cc(Cl)cc2C(C)C)nn1C`
Result: 14.8

----------
# testedOn: NLRP3 (Homo sapiens, UniProt Q96P20)
# assay: THP-1 cells pyroptosis assay (LPS + nigericin, resazurin read-out)
# Type: cell-based
# Design: Seed THP-1 cells (25,000 cells/well) containing 1.0 μg/ml LPS; host or cells: THP-1 cells
# studyConditions: NLRP3 inhibitory activity, 1 μg/ml LPS, 5 μM nigericin
pIC50: −log10 of the molar value. Where a name gives a salt, the structure may show the parent alone.
assayReadout: pIC50

Problem: Query the reported pIC50 for NLRP3 (Homo sapiens, UniProt Q96P20); item: `CC(C)n1nc(S(=O)(=O)NC(=O)Nc2c3c(cc4c2CCC4)CCC3)cc1C(C)(C)O`
Result: > 6.60

Problem: Moving on to CC(C)OS(=O)(=O)NC(=O)Nc1c2c(cc3c1CCC3)CCC2 [Example 87, sodium salt]
Result: 5.30 to 6.00

Problem: Moving on to CC(C)c1cc(F)cc(C(C)C)c1CC(=O)NS(=O)(=O)c1cc(C(C)(C)O)n(C)n1 [Example 32, ammonium salt]
Result: 5.30 to 6.00

Problem: Moving on to `CC(C)c1cc(F)cc(C(C)C)c1NC(=O)NS(=O)(=O)c1cc(C(C)(C)O)n(C(C)C)n1`
Result: 6.30 to 6.60

Problem: Moving on to CC(C)n1cnc(S(=O)(=O)NC(=O)Nc2c3c(cc4c2CCC4)CCC3)n1 [Example 46, sodium salt]
Result: 6.30 to 6.60

Problem: Moving on to `COc1cc(-c2ccc3c(c2NC(=O)NCc2nnn[nH]2)CCC3)ccn1`
Result: 5.00 to 5.30

Problem: Moving on to CC(C)c1cc(F)cc2c1C(C(=O)NS(=O)(=O)c1cc(C(C)(C)O)cs1)CC2(C)C (single isomer, unassigned) [Example 9]
Result: 5.00 to 5.30
